Taken from paper PMC9266368.

Please respond with reported IC50 for every item in the list.
Tested on: HT-29 (colon adenocarcinoma)
Test: MTT cell viability assay, HT-29
Type: cell-based
Settings: Homo sapiens, HT-29, 48 h, 2 days incubation, average ±SD of three experiments
Description: The effects of triazole derivatives 1–26 on the cell viability were determined by MTT assay, and the IC50 values were determined toward the human tumor cell lines HT-29 (colon adenocarcinoma), A-549 (lung adenocarcinoma), and MCF-7 (breast adenocarcinoma), as well as toward the non-tumor cell line HEK-293 (human embryonic kidney cells). […]
Quick note: give the figure in µM, leave out the unit.

Report IC50, nothing else, for this compound: `Cc1ccc(Cn2cc(-c3ccc(N)cc3)nn2)cc1`
8

Report IC50, nothing else, for this compound: Cc1c(COc2ccc(CN3CCCCC3C(=O)O)cc2Br)cccc1-c1ccccc1 (centres unmarked) [BMS-8, reference compound]
19

###

Target: membrane PD-L1 (mPD-L1) (Homo sapiens)
Construct: endogenous in cells; host or cells: HT-29, A-549, MCF-7
Assay: Membrane PD-L1 relative quantification by flow cytometry
Assay type: cell-based
Settings: HT-29; 24 h; 100 or 10 μM (Table 7); percentage referred to DMSO control
Labelling field: enter true (1) if recorded mPD-L1 relative detection, HT-29 is less than 60%. Enter false (0) if it equals or exceeds that cut-off.

For this molecule, is mPD-L1 relative detection, HT-29 lower than 60%? `Nc1ccc(-c2cn(Cc3cccc(Br)c3)nn2)cc1`
false (0)

For this molecule, is mPD-L1 relative detection, HT-29 lower than 60%? `Nc1ccc(-c2cn(Cc3ccc(Cl)cc3)nn2)cc1`
true (1)

For this molecule, is mPD-L1 relative detection, HT-29 lower than 60%? `COc1cccc(Cn2cc(-c3ccc(N)cc3)nn2)c1`
false (0)

For this molecule, is mPD-L1 relative detection, HT-29 lower than 60%? `Nc1ccc(-c2cn(Cc3cccc(Cl)c3)nn2)cc1`
true (1)

For this molecule, is mPD-L1 relative detection, HT-29 lower than 60%? `Nc1ccc(-c2cn(Cc3ccccc3)nn2)cc1`
false (0)

For this molecule, is mPD-L1 relative detection, HT-29 lower than 60%? `Nc1ccc(-c2cn(Cc3ccc(Br)cc3)nn2)cc1`
false (0)

For this molecule, is mPD-L1 relative detection, HT-29 lower than 60%? `Nc1ccc(-c2cn(Cc3ccccc3Br)nn2)cc1`
false (0)

###

Molecular target: membrane PD-L1 (mPD-L1) (Homo sapiens, UniProt Q9NZQ7)
Construct: endogenous in cells; host or cells: HT-29, A-549, MCF-7
Sequence (Q9NZQ7 19-290): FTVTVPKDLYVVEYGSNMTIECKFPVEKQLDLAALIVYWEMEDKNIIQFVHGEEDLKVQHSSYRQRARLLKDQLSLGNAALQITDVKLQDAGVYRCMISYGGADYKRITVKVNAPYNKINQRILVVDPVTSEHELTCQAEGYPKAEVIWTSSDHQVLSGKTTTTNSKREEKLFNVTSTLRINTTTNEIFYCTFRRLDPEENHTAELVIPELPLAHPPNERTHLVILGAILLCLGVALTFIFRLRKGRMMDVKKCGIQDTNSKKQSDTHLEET
Assay: Membrane PD-L1 relative quantification by flow cytometry
Type: cell-based
Settings: A-549; 24 h; 100 or 10 μM (Table 7); percentage referred to DMSO control
Measured Metric: mPD-L1 relative detection, A-549 (%)
Quick note: give the figure in %, leave out the unit.

For membrane PD-L1 (mPD-L1) (Homo sapiens, UniProt Q9NZQ7), give the measured mPD-L1 relative detection, A-549 of the entry Cc1c(COc2ccc(CN3CCCCC3C(=O)O)cc2Br)cccc1-c1ccccc1 (stereo not shown) [BMS-8, reference compound]
99

For membrane PD-L1 (mPD-L1) (Homo sapiens, UniProt Q9NZQ7), give the measured mPD-L1 relative detection, A-549 of the entry `Nc1ccc(-c2cn(Cc3ccccc3Cl)nn2)cc1`
95

For membrane PD-L1 (mPD-L1) (Homo sapiens, UniProt Q9NZQ7), give the measured mPD-L1 relative detection, A-549 of the entry `COc1ccc(Cn2cc(-c3ccc(N)cc3)nn2)cc1`
95

For membrane PD-L1 (mPD-L1) (Homo sapiens, UniProt Q9NZQ7), give the measured mPD-L1 relative detection, A-549 of the entry `COc1ccccc1Cn1cc(-c2ccc(N)cc2)nn1`
89
